PARAMETER_MEASURED: melting point

MOLECULE: COc1cc(OC)cc(C(=O)N2CCc3cc(OCc4ccccc4)ccc3C2=O)c1
MEASURED: 158 to 159 °C

Memo: COC(=O)c1cncn1C1CC2CCCCC2c2ccccc21 (configuration not stated) , reported melting point: 140 °C

Given item CN(C)CCCOc1ccc(-c2nnc(-c3ccc(-c4ccccc4)cc3)o2)cc1 , the value recorded as its melting point is 130 to 132 °C

* * *

Catalogue of melting point values

COMPOUND: CCN(CC)c1ccc(C(=O)C#Cc2ccncc2)cc1
melting point: 85 to 87 °C
//
COMPOUND: OC(CN1CC1)c1ccccc1 (stereo not given)
melting point: 74 to 76 °C
//
COMPOUND: COc1ccc(F)cc1C(=O)NC1Cc2cc(S(=O)(=O)NC(=S)NC(C)C)c(OC)cc2OC1(C)C (stereo not given)
melting point: 156 to 157 °C

Per the record, CCOC(=O)c1ccc2c(c1)N(C(=O)C(C)Br)c1ccccc1C=C2 (stereo not given) has melting point of 163 °C

Noted for CCN(Cc1cc(Cl)ccc1OCC1CC1)c1ccc(C(=O)O)nn1 : its melting point reads 119 to 120 °C

Value of melting point reported for the compound COc1ccc2c(c1)Sc1c(cc(OC)c(OC(C)=O)c1Br)N2 is 201 to 203 °C
